Every entry's value here was drawn from patent US20250230165A1.

- tested_target: Human Polθ polymerase domain (aa1820-2590) (Homo sapiens, UniProt O75417)
- Construct: Human Polθ polymerase domain (aa1820-2590) was expressed in E. coli; made in house; host or cells: E. coli
- Sequence (O75417 1820-2590): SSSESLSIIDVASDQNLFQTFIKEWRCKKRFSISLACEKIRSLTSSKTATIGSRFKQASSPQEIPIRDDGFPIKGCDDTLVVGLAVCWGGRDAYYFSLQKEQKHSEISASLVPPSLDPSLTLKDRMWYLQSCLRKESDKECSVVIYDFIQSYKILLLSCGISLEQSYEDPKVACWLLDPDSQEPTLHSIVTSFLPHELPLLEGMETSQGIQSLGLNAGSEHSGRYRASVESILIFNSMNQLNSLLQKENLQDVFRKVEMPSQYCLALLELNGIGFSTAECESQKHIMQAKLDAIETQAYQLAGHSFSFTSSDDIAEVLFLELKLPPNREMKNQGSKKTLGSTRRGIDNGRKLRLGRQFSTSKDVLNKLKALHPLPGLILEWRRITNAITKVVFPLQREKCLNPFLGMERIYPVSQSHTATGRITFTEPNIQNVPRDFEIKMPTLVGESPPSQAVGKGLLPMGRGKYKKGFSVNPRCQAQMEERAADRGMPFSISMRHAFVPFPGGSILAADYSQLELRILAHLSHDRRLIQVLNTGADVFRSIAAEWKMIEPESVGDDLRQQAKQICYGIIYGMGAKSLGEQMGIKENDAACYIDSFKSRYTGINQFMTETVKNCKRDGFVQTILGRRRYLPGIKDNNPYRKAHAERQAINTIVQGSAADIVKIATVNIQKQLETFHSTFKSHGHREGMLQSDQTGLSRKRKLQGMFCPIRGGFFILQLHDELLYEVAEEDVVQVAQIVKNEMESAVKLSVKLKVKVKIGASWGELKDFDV
- procedure_details: Polθ Polymerase Domain Kinact/KI Assay (PicoGreen)
- Format: biochemical
- test_settings: 0.8 nM Polθ, 100 nM DNA substrate, kobs vs [I] fit for 2-step covalent inhibitor
- Description: Polθ Polymerase Domain Kinact/KI Assay A PicoGreen assay was used to measure the Kinact and KI values of covalent compounds that inhibit the activity of Polθ in vitro. Human Polθ polymerase domain (aa1820-2590) was expressed in E. coli, purified, aliquoted and stored at −80° C. until required. Polθ substrate was generated from a 1.2:1 mix of DNA II Short to DNA II Long to give a final concentration of […] substrate in annealing buffer (20 mM Tris pH 7.5, 50 mM NaCl). […]
Reported values of Kinact/Kl for individual entries

[
  {
    "compound": "C=CC(=O)N1C[C@@H](n2cc(CN3C[C@H]4CC(=O)N(c5cc(C(F)(F)F)cc(C)n5)[C@@H]4C(=O)N(C)c4cccc(C)c43)cn2)[C@@H](F)C1 (single isomer, unassigned) [Example 325c]",
    "tested_target": "Human Polθ polymerase domain (aa1820-2590) (Homo sapiens, UniProt O75417)",
    "units_symbol": "M⁻¹ s⁻¹",
    "Kinact/Kl": 980000
  },
  {
    "compound": "C=CC(=O)N1CC(n2ccc(CN3C[C@H]4CC(=O)N(c5cc(C(F)(F)F)cc(C)n5)[C@@H]4C(=O)N(C)c4cccc(F)c43)n2)C1",
    "tested_target": "Human Polθ polymerase domain (aa1820-2590) (Homo sapiens, UniProt O75417)",
    "units_symbol": "M⁻¹ s⁻¹",
    "Kinact/Kl": 890000
  },
  {
    "compound": "C/C=C(\\CN(C)C)C(=O)N1CC(OCCCN2C[C@H]3CC(=O)N(c4cc(C(F)(F)F)cc(C)n4)[C@@H]3C(=O)N(C)c3cccc(C)c32)C1",
    "tested_target": "Human Polθ polymerase domain (aa1820-2590) (Homo sapiens, UniProt O75417)",
    "units_symbol": "M⁻¹ s⁻¹",
    "Kinact/Kl": "4.38e+06"
  },
  {
    "compound": "C=CC(=O)N1CCN(CCN2C[C@H]3CC(=O)N(c4cc(C(F)(F)F)cc(C)n4)[C@@H]3C(=O)N(C)c3cccc(Cl)c32)CC1CC#N (mixture of isomers) [Example 258a]",
    "tested_target": "Human Polθ polymerase domain (aa1820-2590) (Homo sapiens, UniProt O75417)",
    "units_symbol": "M⁻¹ s⁻¹",
    "Kinact/Kl": "1.65e+06"
  },
  {
    "compound": "C=C(CN1CCN(C)CC1)C(=O)N1CC(CCCCN2C[C@H]3CC(=O)N(c4cc(C(F)(F)F)cc(C)n4)[C@@H]3C(=O)N(C)c3cccc(Cl)c32)C1",
    "tested_target": "Human Polθ polymerase domain (aa1820-2590) (Homo sapiens, UniProt O75417)",
    "units_symbol": "M⁻¹ s⁻¹",
    "Kinact/Kl": "4.66e+06"
  },
  {
    "compound": "Cc1cc(C(F)(F)F)cc(N2C(=O)C[C@@H]3CN(Cc4ccc5c(c4)C(CC#N)N(C(=O)/C=C/CN(C)C)C5)c4c(Cl)cccc4N(C)C(=O)[C@H]32)n1 (single isomer, unassigned) [Example 311a]",
    "tested_target": "Human Polθ polymerase domain (aa1820-2590) (Homo sapiens, UniProt O75417)",
    "units_symbol": "M⁻¹ s⁻¹",
    "Kinact/Kl": "1.12e+06"
  },
  {
    "compound": "Cc1cc(C(F)(F)F)cc(N2C(=O)C[C@@H]3CN(Cc4ccn(C5CN(C(=O)/C=C/CN(C)C)C5)n4)c4c(F)cccc4N(C)C(=O)[C@H]32)n1",
    "tested_target": "Human Polθ polymerase domain (aa1820-2590) (Homo sapiens, UniProt O75417)",
    "units_symbol": "M⁻¹ s⁻¹",
    "Kinact/Kl": "1.34e+06"
  },
  {
    "compound": "C=C(CN(C)C)C(=O)N1CC(CCCCN2C[C@H]3CC(=O)N(c4cc(C(F)(F)F)cc(C)n4)[C@@H]3C(=O)N(C)c3cccc(Cl)c32)C1",
    "tested_target": "Human Polθ polymerase domain (aa1820-2590) (Homo sapiens, UniProt O75417)",
    "units_symbol": "M⁻¹ s⁻¹",
    "Kinact/Kl": "5.08e+06"
  },
  {
    "compound": "C=C(CN(C)C)C(=O)N1Cc2ccc(CN3C[C@H]4CC(=O)N(c5cc(C(F)(F)F)cc(C)n5)[C@@H]4C(=O)N(C)c4cccc(Cl)c43)cc2C1",
    "tested_target": "Human Polθ polymerase domain (aa1820-2590) (Homo sapiens, UniProt O75417)",
    "units_symbol": "M⁻¹ s⁻¹",
    "Kinact/Kl": "1.82e+06"
  },
  {
    "compound": "C=CC(=O)N1CCn2cc(CN3C[C@H]4CC(=O)N(c5cc(C(F)(F)F)cc(C)n5)[C@@H]4C(=O)N(C)c4cccc(Cl)c43)nc2C1",
    "tested_target": "Human Polθ polymerase domain (aa1820-2590) (Homo sapiens, UniProt O75417)",
    "units_symbol": "M⁻¹ s⁻¹",
    "Kinact/Kl": "6.47e+06"
  },
  {
    "compound": "C=CC(=O)N1C[C@@H]2CN(CCN3C[C@H]4CC(=O)N(c5cc(C(F)(F)F)cc(C)n5)[C@@H]4C(=O)N(C)c4cccc(F)c43)CCN2C(=O)[C@H]1C (single isomer, unassigned)",
    "tested_target": "Human Polθ polymerase domain (aa1820-2590) (Homo sapiens, UniProt O75417)",
    "units_symbol": "M⁻¹ s⁻¹",
    "Kinact/Kl": 300000
  },
  {
    "compound": "Cc1cc(C(F)(F)F)cc(N2C(=O)C[C@@H]3CN(CCCOC4CN(C(=O)/C=C/CN(C)C)C4)c4c(Cl)cccc4N(C)C(=O)[C@H]32)n1",
    "tested_target": "Human Polθ polymerase domain (aa1820-2590) (Homo sapiens, UniProt O75417)",
    "units_symbol": "M⁻¹ s⁻¹",
    "Kinact/Kl": "2.22e+06"
  },
  {
    "compound": "C=CC(=O)N1CCOC[C@@H]1c1ccc(CN2C[C@H]3CC(=O)N(c4cc(C(F)(F)F)cc(C)n4)[C@@H]3C(=O)N(C)c3cccc(C)c32)cc1 (racemic) [Example 323b]",
    "tested_target": "Human Polθ polymerase domain (aa1820-2590) (Homo sapiens, UniProt O75417)",
    "units_symbol": "M⁻¹ s⁻¹",
    "Kinact/Kl": 330000
  },
  {
    "compound": "Cc1cc(C(F)(F)F)cc(N2C(=O)C[C@@H]3CN(Cc4ccc(NC(=O)/C=C/CN(C)C)cc4F)c4c(Cl)cccc4N(C)C(=O)[C@H]32)n1",
    "tested_target": "Human Polθ polymerase domain (aa1820-2590) (Homo sapiens, UniProt O75417)",
    "units_symbol": "M⁻¹ s⁻¹",
    "Kinact/Kl": 420000
  },
  {
    "compound": "C=CC(=O)N1CC2(CN(CCN3C[C@H]4CC(=O)N(c5cc(C(F)(F)F)cc(C)n5)[C@@H]4C(=O)N(C)c4cccc(F)c43)C[C@H]3CCCN32)C1",
    "tested_target": "Human Polθ polymerase domain (aa1820-2590) (Homo sapiens, UniProt O75417)",
    "units_symbol": "M⁻¹ s⁻¹",
    "Kinact/Kl": 670000
  },
  {
    "compound": "C=CC(=O)N1Cc2ccc(CN3C[C@H]4CC(=O)N(c5cc(C(F)(F)F)cc(C)n5)[C@@H]4C(=O)N(C)c4cccc(C)c43)nc2[C@H]1CC#N (racemic) [Example 318a]",
    "tested_target": "Human Polθ polymerase domain (aa1820-2590) (Homo sapiens, UniProt O75417)",
    "units_symbol": "M⁻¹ s⁻¹",
    "Kinact/Kl": "1.9e+06"
  },
  {
    "compound": "C=CC(=O)N1Cc2cc(CN3C[C@H]4CC(=O)N(c5cc(C(F)(F)F)cc(C)n5)[C@@H]4C(=O)N(C)c4cccc(Cl)c43)cnc2C1CO (single isomer, unassigned)",
    "tested_target": "Human Polθ polymerase domain (aa1820-2590) (Homo sapiens, UniProt O75417)",
    "units_symbol": "M⁻¹ s⁻¹",
    "Kinact/Kl": "1.01e+06"
  },
  {
    "compound": "Cc1cc(C(F)(F)F)cc(N2C(=O)C[C@@H]3CN(Cc4ccc([C@@H]5CCCN5C(=O)/C=C/CN(C)C)cc4)c4c(F)cccc4N(C)C(=O)[C@H]32)n1 (racemic) [Example 170b]",
    "tested_target": "Human Polθ polymerase domain (aa1820-2590) (Homo sapiens, UniProt O75417)",
    "units_symbol": "M⁻¹ s⁻¹",
    "Kinact/Kl": 410000
  },
  {
    "compound": "C=CC(=O)N1CC(N2CC[C@H](CN3C[C@H]4CC(=O)N(c5cc(C(F)(F)F)cc(C)n5)[C@@H]4C(=O)N(C)c4cccc(Cl)c43)C2)C1",
    "tested_target": "Human Polθ polymerase domain (aa1820-2590) (Homo sapiens, UniProt O75417)",
    "units_symbol": "M⁻¹ s⁻¹",
    "Kinact/Kl": "1.62e+06"
  },
  {
    "compound": "Cc1cc(C(F)(F)F)cc(N2C(=O)C[C@@H]3CN(Cc4ccc5c(c4)OCCN5C(=O)/C=C/CN(C)C)c4c(Cl)cccc4N(C)C(=O)[C@H]32)n1",
    "tested_target": "Human Polθ polymerase domain (aa1820-2590) (Homo sapiens, UniProt O75417)",
    "units_symbol": "M⁻¹ s⁻¹",
    "Kinact/Kl": 280000
  },
  {
    "compound": "C=CC(=O)N1Cc2ncc(CN3C[C@H]4CC(=O)N(c5cc(C(F)(F)F)cc(C)n5)[C@@H]4C(=O)N(C)c4cccc(Cl)c43)cc2C1CC#N (single isomer, unassigned) [Example 291a]",
    "tested_target": "Human Polθ polymerase domain (aa1820-2590) (Homo sapiens, UniProt O75417)",
    "units_symbol": "M⁻¹ s⁻¹",
    "Kinact/Kl": "1.17e+06"
  }
]
